Assay: Human HepG2 cell viability assay in 384 well format
Type: toxicity, cell-based
Set-up: dose 125 nL, time 70.5 hour; concentration not given beside the values
Details: HepG2 cells, read-out: Inhibition
Here the recorded cytotoxicity at 70.5 h is given for each entry.
READOUT LABEL: cytotoxicity at 70.5 h (%)

* CCc1ncc(C(=O)N(C)CCc2nc3cc(OC)ccc3[nH]2)cn1 | 11.2
* Cn1cccc1CN1CCc2ncnc(-c3cccnc3)c2CC1 | -4.34
* CC(=O)N1CCc2ccc(NC(=O)c3cn(C)nn3)cc2C1 | -5.41
* Cc1nsc(NC(=O)N2CCCC2C)n1 (stereo unspecified) | 2.78
* CC(=O)N1CCN(CC(C)(O)c2cccc(C(F)(F)F)c2)CC1 (stereo unspecified) | -8.81
* CNc1ncc(CN(C)C2CCN(C(C)C)CC2)cn1 | -3.89
* CC(C)S(=O)(=O)NCC1CCCN(C(=O)c2ccc3c(c2)OCCO3)C1 (stereo unspecified) | -1.13
* Cn1c(C2CC2)nc2c1CCN(CC(=O)Nc1ccncc1)C2 | 4.27
* CN(C)CC(C)(C)Cn1cnc(-c2ccccc2)c1-c1ncc[nH]1 | 11.7
* COc1ccc(CNCC(C)Oc2ccccn2)cc1Cl (stereo unspecified) | -8.86
* O=C(Cc1cn2ccsc2n1)N1CCCC(n2cccn2)C1 (stereo unspecified) | -3.32
* CCCN1CCC(Cc2nn3c(C(C)C)nnc3s2)CC1 | 10.4
* Cc1nc(C)n(CC2CCCN(CCOc3ccccc3F)C2)n1 (stereo unspecified) | 28.7
* COc1ccc(Cl)cc1S(=O)(=O)N(C)CC(=O)Nc1ccon1 | -12
* CN1CC2(CCCN(Cc3cccc(CCN)c3)C2)OC1=O (stereo unspecified) | 2.55
* CSc1nsc(NC(=O)c2cc(C3CC3)nn2C)n1 | -6.09
* Cc1ccnn1CCCNC(=O)C1CCN(S(C)(=O)=O)CC1 | -1.25
* Cc1ccc(CN2CC[C@H]3[C@H]2CC(=O)N3c2ccsc2)o1 | 5.86
* CN(CCOc1cccc(F)c1)Cc1nc2c(cnn2C)c(=O)[nH]1 | -8.53
* CCOc1ccc(-c2ccnc(C)n2)cc1C(=O)O | -4.51
* CCN1C(=O)C(c2ccccc2)CC12CCN(CCO)CC2 (stereo unspecified) | -13.9
* CCc1c(C)nn(CCNC(=O)c2csc(C)n2)c1C | -6.58
* Cc1ccc(C(=O)CN(C2=NCCCCC2)c2ccccc2)cc1 | -23.6
* CCCn1ncc2c(C(=O)Nc3cnn(CC)c3C)cc(C3CC3)nc21 | 5.37
* COC1CN(C(=O)C2CC2)CCC(=O)N(C)c2ccccc21 (stereo unspecified) | 2.56
* COc1ccc(CN2CCCCC2Cn2nc(C)nc2C)cc1F (stereo unspecified) | -1.41
* Cc1ncc(CN(C)c2nc3c(cnn3C(C)(C)C)c(=O)[nH]2)s1 | 11.8
* Cc1cs/c(=N\C(=O)Cn2nc(N3CCC(C)CC3)ccc2=O)[nH]1 | -9.83
* COc1ccccc1CNC(=O)COc1c(C)n(C)ccc1=O | -20.3
* c1coc(CN2CCO[C@H]3[C@H](OCC4CC4)CC[C@@H]32)c1 | -10.8
* O=C(O)c1cc(/C=C/c2ccc3ccccc3c2)ncn1 | -7.92
* O=C(CC1COCCN1)N1CCC(N2CCc3ccccc3C2)CC1 (stereo unspecified) | 7.65
* CCCc1nnsc1C(=O)N1CCCC1(C)C(=O)N1CCOCC1 (stereo unspecified) | -9.09
* O=C(NCC1CC1)[C@@H]1CC[C@@H]2[C@@H](CCN2Cc2ccc(F)c(F)c2)O1 | 2.42
* CS(=O)(=O)Nc1cccc(CNC(=O)c2cccs2)c1 | 19
* CC(C)c1cc(O)nc(C2CCCN2C(=O)C(C)(C)C)n1 (stereo unspecified) | 26.4
* O=C1CSCN1CC(=O)N1CCCC1c1nc2ccccc2s1 (stereo unspecified) | 2.26
* Cc1c(NC(=O)NC2CCOCC2)cccc1C(=O)N1CCCC1 | 10.6
* Cc1csc(N2CCN(Cc3cnc4c(c3)c(C)nn4C)CC2)n1 | -24.9
* CCc1nc(C2CCCN2Cc2nc(CCOC)no2)no1 (stereo unspecified) | -9.31
* Nc1ccc(-c2ccc(F)cc2Cl)cn1 | -8.38
